# System Under Test: T1, DRB7.2M (T71-G162) (A. thaliana, UniProt F4JHB3 71-162)
# T1 construct: DRB7.2, A. thaliana, UniProt F4JHB3, residues T71-G162 (dsRBD S84-G162 with the N-terminal flanking residues T71-S83); Isotope labelled (15N, 13C, 2H) or perdeuterated for NMR; Further cloning details are in Paturi & Deshmukh, 2023; also called dsRBD region of DRB7.2; DRB7.2 dsRBD
# T1 sequence (looked up): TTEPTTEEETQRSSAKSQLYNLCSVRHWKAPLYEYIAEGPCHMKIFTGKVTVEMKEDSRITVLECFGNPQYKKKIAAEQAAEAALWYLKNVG
# Protocol Details: ITC; DRB4 constructs (200 μM, syringe) injected into DRB7.2 or DRB7.2M (20 μM, cell); 25 °C; 50 mM potassium phosphate pH 7.0, 50 mM NaCl, 50 mM Na2SO4, 2 mM DTT
# Conditions Used: both partners purified
Readout Type: Kd (nM)
Give bare numbers, in nM.

Ask: Retrieve Kd measured for DRB4D3 (294-355) (domain or fragment, A. thaliana, UniProt Q8H1D4 294-355, looked up, DRB4, A. thaliana, UniProt Q8H1D4, residues 294-355 (E294-P355); Isotope labelled (15N, 13C, 2H) or perdeuterated for NMR; source: cloned, expressed and purified as described (Chiliveri et al, 2017)) ETSSCVVDESEKKKLIMGTGHLSIPTGQHVVCRPWNPEITLPQDAEMLFRDDKFIAYRLVKP and print it.
Reply: 2.84
